- assayed_system: purified recombinant human IDO1 (rhIDO1) (Homo sapiens, UniProt P14902)
- Construct: purchased Origene
- Sequence (P14902 whole entry): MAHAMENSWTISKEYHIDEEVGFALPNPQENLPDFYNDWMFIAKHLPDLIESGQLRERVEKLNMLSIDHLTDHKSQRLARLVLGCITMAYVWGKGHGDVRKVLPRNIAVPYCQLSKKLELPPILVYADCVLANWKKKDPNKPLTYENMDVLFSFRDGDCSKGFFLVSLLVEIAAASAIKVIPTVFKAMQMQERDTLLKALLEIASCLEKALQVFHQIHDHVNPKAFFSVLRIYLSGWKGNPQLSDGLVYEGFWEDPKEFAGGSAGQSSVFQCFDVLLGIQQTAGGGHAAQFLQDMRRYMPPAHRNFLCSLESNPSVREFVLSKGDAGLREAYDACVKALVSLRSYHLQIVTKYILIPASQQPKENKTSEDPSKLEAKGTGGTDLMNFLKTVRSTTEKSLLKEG
- assay_name: rhIDO1 enzymatic assay (conversion of L-Trp to L-KYN, p-dimethylaminobenzaldehyde readout)
- Assay type: biochemical
- measurement_parameters: rhIDO1, compound 1 µM; mean ± SE of two independent experiments
Below: a set of entries, each annotated with reported inhibition at 1 µM.

{"columns": ["compound", "inhibition at 1 µM / %"],
 "data": [
  ["N#CCc1ccc(-c2cn(CC(=O)NCc3cnc4scc(-c5ccc(Br)cc5)n34)nn2)cc1 [12f]", 55],
  ["O=C(Cn1cc(-c2ccccc2)nn1)NCc1cnc2scc(-c3ccc(Br)cc3)n12 [12b]", 61],
  ["OCCCc1cn(Cc2cnc3scc(-c4ccc(Br)cc4)n23)nn1 [11i]", 0],
  ["Brc1ccc(-c2csc3ncc(Cn4cc(-c5ccccc5)nn4)n23)cc1 [11b]", 35],
  ["O=C(Cn1cc(Cc2ccccc2)nn1)NCc1cnc2scc(-c3ccc(Br)cc3)n12 [12a]", 63],
  ["N#CCc1ccc(-c2cn(Cc3cnc4scc(-c5ccc(Br)cc5)n34)nn2)cc1 [11f]", 74],
  ["N#CCCCCc1cn(Cc2cnc3scc(-c4ccc(Br)cc4)n23)nn1 [11k]", 62],
  ["Brc1ccc(-c2csc3ncc(Cn4cc(Cc5ccccc5)nn4)n23)cc1 [11a]", 30],
  ["Nc1ccc(-c2cn(CC(=O)NCc3cnc4scc(-c5ccc(Br)cc5)n34)nn2)cc1 [12d]", 56],
  ["N#Cc1ccc(-c2cn(CC(=O)NCc3cnc4scc(-c5ccc(Br)cc5)n34)nn2)cc1 [12e]", 50],
  ["N#CCCCCc1cn(CC(=O)NCc2cnc3scc(-c4ccc(Br)cc4)n23)nn1 [12k]", 50],
  ["OC1(c2cn(Cc3cnc4scc(-c5ccc(Br)cc5)n34)nn2)CCCCC1 [11h]", 35],
  ["O=C(Cn1cc(C2CC2)nn1)NCc1cnc2scc(-c3ccc(Br)cc3)n12 [12g]", 70],
  ["O=C(Cn1cc(CCCO)nn1)NCc1cnc2scc(-c3ccc(Br)cc3)n12 [12i]", 45],
  ["O=C(Cn1cc(C2(O)CCCCC2)nn1)NCc1cnc2scc(-c3ccc(Br)cc3)n12 [12h]", 63],
  ["Brc1ccc(-c2csc3ncc(Cn4cc(C5CC5)nn4)n23)cc1 [11g]", 61],
  ["COc1ccc(-c2cn(CC(=O)NCc3cnc4scc(-c5ccc(Br)cc5)n34)nn2)cc1 [12c]", 5]
]}
